Experiment: Protein binding in human serum at 1 ug/ml incubated for 4 hrs by LC-MS/MS analysis
Type: ADME, cell-free
Details: at 1 µg/mL, read-out: PB (converted)
# fraction unbound at 4 h, 1 ug/ml annotations
Returns: the value as a bare number; no unit string appended.

Query string: Item under review: C[C@H](O)CN1C[C@@H]2[C@@H](C#Cc3ccc(-c4cc([C@@H](CN)n5ccnc5[C@H](C)O)no4)cc3)[C@@H]2C1 . Reported fraction unbound at 4 h, 1 ug/ml?
Result string: 0.212

Next:
Query string: Given COCCN1CCN(c2ccc(C#Cc3cc(Cn4ccnc4[C@H](C)O)no3)cc2)CC1 , state its recorded fraction unbound at 4 h, 1 ug/ml.
Result string: 0.09

Query string: Which fraction unbound at 4 h, 1 ug/ml is reported for this compound? C[C@H](O)c1nccn1Cc1cc(-c2ccc(C#CCCCO)cc2)on1
Result string: 0.031

Query string: Entry C[C@H](O)c1nccn1Cc1cc(-c2ccc(C#CC34CC(N)(C3)C4)cc2)no1 : reported fraction unbound at 4 h, 1 ug/ml = ?
Result string: 0.035

Query string: Given the compound C[C@H](O)c1nccn1Cc1cc(-c2ccc(C#CC34CC(N)(C3)C4)cc2)on1 , what is its reported fraction unbound at 4 h, 1 ug/ml?
Result string: 0.027

Query string: fraction unbound at 4 h, 1 ug/ml for C[C@H](O)c1nccn1Cc1cc(C#Cc2ccc(OC3CN(CCCO)C3)cc2)on1 ?
Result string: 0.261

Query string: Item under review: C[C@H](O)c1nccn1[C@H](CN)c1cc(-c2ccc(C#C[C@@H]3[C@H]4CN(C=O)C[C@@H]34)cc2)on1 . Reported fraction unbound at 4 h, 1 ug/ml?
Result string: 0.275

Query string: Reported fraction unbound at 4 h, 1 ug/ml for C[C@H](O)c1nccn1Cc1cc(-c2ccc(C#C[C@@H]3[C@H]4CN(CCCC(=O)O)C[C@@H]34)cc2)on1 : what is it?
Result string: 0.223
